# system: T1, MRJP-3 (jelly-purified) (Apis mellifera, UniProt Q17060 21-544)
# T1 sequence: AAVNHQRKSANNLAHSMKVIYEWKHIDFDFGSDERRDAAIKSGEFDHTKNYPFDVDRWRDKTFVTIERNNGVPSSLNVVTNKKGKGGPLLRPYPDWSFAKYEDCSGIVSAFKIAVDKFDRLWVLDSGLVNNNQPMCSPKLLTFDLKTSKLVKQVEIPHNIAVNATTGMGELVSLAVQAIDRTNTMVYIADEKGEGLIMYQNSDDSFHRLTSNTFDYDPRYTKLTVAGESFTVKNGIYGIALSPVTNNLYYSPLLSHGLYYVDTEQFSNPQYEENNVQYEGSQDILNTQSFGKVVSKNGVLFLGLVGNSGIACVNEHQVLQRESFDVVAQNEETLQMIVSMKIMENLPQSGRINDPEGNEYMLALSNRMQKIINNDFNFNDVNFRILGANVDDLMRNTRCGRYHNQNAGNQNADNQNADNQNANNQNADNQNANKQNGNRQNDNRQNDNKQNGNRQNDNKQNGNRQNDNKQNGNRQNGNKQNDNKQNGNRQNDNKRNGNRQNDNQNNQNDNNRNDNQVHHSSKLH
# experiment: MST; second of three binding phases; MST: RJ buffer (composition not in material) + 0.01% Tween 20, 25 C; EMSA: room temperature 0.5-3 h, 0.8% agarose, 1xTAE
# settings: protein: native; label: Alexa Fluor 488 (Ulysis) for MST
property_measured: Kd (nM)
Give your result in nM as a bare value.

Note down Kd recorded for UCAUAUGGGCUCACUGUUACUA (ssRNA) [22 nt ssRNA]
300
